Cited source: the supplement of paper PMC5998384

Recorded solubility in G1/S (log2) by entry
System: HeLa Kyoto
experiment-notes: solubility in G1/S (NP-40 vs SDS abundance) (log2 ratio); higher = more soluble
condition-notes: cell cycle stage: G1/S
I'd appreciate a reply containing only the number, no unit.

{"columns": ["substance", "outcome-measure", "endpoint-result"],
 "data": [
  ["MESSRGRPGPETDLLAVAEHQALVFGGGPGRTSSEPPAGLRVSGEEETENVGGANRHPRTSPKTSSCGVVHRPEREALENEPGPQGTLSGAGSRRGAPGAEHEPSLSSRHKNPAPPEGKPSSGRDCRRGGPGGGMDVEQQEEEDNDEEAAAGSRAGRSFSSRLQDSRSLDGLSEACGGAGSSGSAESGAGGGRRATISSPLELEGTVSRHGDLTHFVANNLQLKIRLSGAPPPPPSAPARPCPAPAPTPTPAIPPIDPEVLRDLERLSRELGGRVDRLLRGLGGAVQELTALSVGCIQTYRDAVDSLGEAVDMSIKGMYTLLARCEELERALQPVQGLARQVRDIRRTLEVLEALCK [C17ORF59]", "solubility in G1/S (log2)", 0.166]
]}

Now look at this entry.
Ask: Look up and report measured solubility in G1/S (log2) for this entry: `RAPGEF2`
Reply: -0.143

* * *

Test system: HeLa Kyoto
experiment-notes: thermal stability score vs G1/S (z-score of summed log2 fold changes over temperatures); higher = more thermally stable than in G1/S
condition-notes: cell cycle stage: early G1 (4.5 h after nocodazole release)
outcome-measure: thermal stability score
I'd appreciate a reply containing only the number, no unit.

Solved entries:
{"columns": ["entry-sequence", "thermal stability score"],
 "data": [
  ["MVEADRPGKLFIGGLNTETNEKALETVFGKYGRIVEVLLIKDRETNKSRGFAFVTFESPADAKDAARDMNGKSLDGKAIKVEQATKPSFERGRHGPPPPPRSRGPPRGFGAGRGGSGGTRGPPSRGGHMDDGGYSMNFNMSSSRGPLPVKRGPPPRSGGPSPKRSAPSGLVRSSSGMGGRAPLSRGRDSYGGPPRREPLPSRRDVYLSPRDDGYSTKDSYSSRDYPSSRDTRDYAPPPRDYTYRDYGHSSSRDDYPSRGYGDRDGYGRDRDYSDHPSGGSYRDSYESYGNSRSAPLTRGPPPSYGGSSRYDDYSSSRDGYGGSRDSYSSSRSDLYSSCDRVGRQERGLPPSVERGYPSSRDSYSSSSRGAPRGAGPGGSRSDRGGGRSRY [RBMXL1]", -0.08],
  ["MALRVVRSVRALLCTLRAVPSPAAPCPPRPWQLGVGAVRTLRTGPALLSVRKFTEKHEWVTTENGIGTVGISNFAQEALGDVVYCSLPEVGTKLNKQDEFGALESVKAASELYSPLSGEVTEINEALAENPGLVNKSCYEDGWLIKMTLSNPSELDELMSEEAYEKYIKSIEE [GCSH]", -1.2]
]}

Ask: Look up and report measured thermal stability score for this entry: MAAYSYRPGPGAGPGPAAGAALPDQSFLWNVFQRVDKDRSGVISDTELQQALSNGTWTPFNPVTVRSIISMFDRENKAGVNFSEFTGVWKYITDWQNVFRTYDRDNSGMIDKNELKQALSGFGYRLSDQFHDILIRKFDRQGRGQIAFDDFIQGCIVLQRLTDIFRRYDTDQDGWIQVSYEQYLSMVFSIV [PDCD6]
Reply: 2.71
